# credit: PubChem BioAssay

Here, each record is paired with measured differential viability (reversal) data.
test: reversal of MRP1-mediated doxorubicin resistance, pilot screen, H69AR cells, doxorubicin co-treatment (AID 601); conditions: H69AR cells + 2 uM doxorubicin, CellTiter-Glo, 72 h; at 10 µM; active compounds read high
I only need the number, in %, no unit after it.

Below, 6 molecules whose answers are already recorded.
* N[C@@H](Cc1ccc(O)c(I)c1)C(=O)O | 15.7
* CCOC(=O)C1CCN(c2c(NC3CCCCCCC3)c(=O)c2=O)CC1 | 8.71
* CN(C(=O)C1CCCO1)c1nnc(-c2ccncc2)s1 (stereo not given) | 7.37
* CC(C)[N+]1(C)[C@@H]2CC[C@H]1CC(OC(=O)C(CO)c1ccccc1)C2 (stereo not given in full) | 9.31
* CCOC(=O)CS(=O)(=O)c1nc(-c2ccccc2)cc(C(F)(F)F)n1 | 0.47
* COc1ccc(Cn2c(N)c(C#N)c3nc4ccccc4nc32)cc1OC | 12.6

Proceed to the following item.
In: For the molecule shown here, Cc1nc(C)c(C(=O)C2=C(O)C(=O)N(CCCn3ccnc3)C2c2ccccc2)s1 (stereo not given) , give the reported differential viability (reversal).
Out: 0.995
